pKi: −log10 of the molar value.
Reported pKi against Vasopressin V1b receptor (Homo sapiens), gathered from multiple publications, appears below.

Quick check: pKi on Vasopressin V1b receptor (Homo sapiens), item CCOc1ccccc1C1(N2CCN(c3ccncc3)CC2)C(=O)N(S(=O)(=O)c2cccc3c(C)ccnc23)c2ccc(C#N)cc21 (racemic) ?
> 8.00

Quick check: pKi on Vasopressin V1b receptor (Homo sapiens), item COc1ccc(S(=O)(=O)n2c(=O)n(C(C(=O)NCCN3CCN(C)CC3)c3ccccc3)c3cc(Cl)ccc32)cc1 (stereo not drawn) ?
6.30 to 7.00

Quick check: pKi on Vasopressin V1b receptor (Homo sapiens), item CCOc1ncccc1C1(NC(=O)c2ccc(N3CCN(CC)CC3)cc2)C(=O)N(S(=O)(=O)c2ccc(OC)cc2)c2ccc(C#N)cc21 (stereo not drawn) ?
8.00 to 9.00

* * *

pKi: −log10 of the molar value.
Reported pKi against Vasopressin V1b receptor (Homo sapiens, UniProt P47901), gathered from multiple publications, appears below.
Sequence (P47901 whole entry): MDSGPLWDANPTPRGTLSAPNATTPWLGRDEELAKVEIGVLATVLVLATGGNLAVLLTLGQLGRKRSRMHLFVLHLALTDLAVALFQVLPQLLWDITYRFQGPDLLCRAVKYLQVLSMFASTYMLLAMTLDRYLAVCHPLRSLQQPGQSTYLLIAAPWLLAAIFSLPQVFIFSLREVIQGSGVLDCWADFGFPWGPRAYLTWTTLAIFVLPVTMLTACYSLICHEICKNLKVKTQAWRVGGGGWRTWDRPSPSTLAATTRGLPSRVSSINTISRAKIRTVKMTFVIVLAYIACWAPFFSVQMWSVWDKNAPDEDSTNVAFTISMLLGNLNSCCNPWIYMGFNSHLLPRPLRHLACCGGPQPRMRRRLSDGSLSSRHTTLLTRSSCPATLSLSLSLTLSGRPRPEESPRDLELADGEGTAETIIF

Quick check: pKi on Vasopressin V1b receptor (Homo sapiens, UniProt P47901), item CC(C(=O)N1CCN(c2ccncc2)CC1)n1c(=O)n(S(=O)(=O)c2ccc(C#N)cc2)c2ccc(Cl)cc21 (stereo not drawn) ?
5.00 to 6.30

Quick check: pKi on Vasopressin V1b receptor (Homo sapiens, UniProt P47901), item CCCNCc1ccc(OC)c(C2(N3C[C@H](O)C[C@H]3c3ncco3)C(=O)N(S(=O)(=O)c3ccc(OC)cc3)c3ccc(Cl)cc32)c1 (stereo partly drawn) ?
> 8.00

Quick check: pKi on Vasopressin V1b receptor (Homo sapiens, UniProt P47901), item COc1ccc(S(=O)(=O)N2C(=O)C(c3cc(CN(C)C)ccc3OC)(N3C[C@H](O)C[C@H]3c3ncco3)c3cc(Cl)ccc32)cc1 (stereo partly drawn) ?
> 8.00

Quick check: pKi on Vasopressin V1b receptor (Homo sapiens, UniProt P47901), item CCOc1ncccc1C1(OC(=O)N2CCN(C3CCN(C)CC3)CC2)C(=O)N(S(=O)(=O)c2ccccc2)c2cc(F)c(Cl)cc21 (stereo not drawn) ?
8.00 to 9.00

Quick check: pKi on Vasopressin V1b receptor (Homo sapiens, UniProt P47901), item COc1ccc(S(=O)(=O)n2c(=O)n(C(C(=O)N3CC[C@@H](N4CCN(Cc5ccccc5)CC4)C3)c3ccccc3)c3cc(Cl)ccc32)cc1 (stereo partly drawn) ?
6.30 to 7.00

Quick check: pKi on Vasopressin V1b receptor (Homo sapiens, UniProt P47901), item COc1ccc(S(=O)(=O)N2C(=O)C(c3cc(CN4CCN(C(C)C)CC4)ccc3OC)(N3CCC[C@H]3c3ncco3)c3cc(C#N)ccc32)cc1 (stereo partly drawn) ?
7.00 to 8.00

* * *

pKi: −log10 of the molar value.
Reported pKi against Vasopressin V1b receptor (Homo sapiens, UniProt P47901), gathered from multiple publications, appears below.

Item under review: CNCc1ccc(OC)c(C2(N3CCC[C@@]3(C)c3ncco3)C(=O)N(S(=O)(=O)c3ccc(OC)cc3)c3ccc(Cl)cc32)c1 (stereo partly drawn) . Reported pKi?
> 8.00

Item under review: CCOc1ncccc1C1(OC(=O)N2CCN(C3CCN(C)CC3)CC2)C(=O)N(S(=O)(=O)c2ccccc2OC)c2ccc(C#N)cc21 (single isomer, unassigned; (-)) . Reported pKi?
> 8.00

Item under review: COc1ccc(S(=O)(=O)N2C(=O)C(c3cccc(CN4CCCC4)c3OC)(N3CCC[C@H]3c3ncco3)c3cc(Cl)ccc32)cc1 (stereo partly drawn) . Reported pKi?
6.00 to 7.00

Item under review: CCOc1ccc(OC)cc1C1(N2CCN(c3ccnc(C(C)C)c3)CC2)C(=O)N(S(=O)(=O)c2cccc3cccnc23)c2ccc(C#N)cc21 (racemic) . Reported pKi?
> 8.00

Item under review: CCOc1ccc(OC)cc1C1(N2CCCN(c3ccncc3)CC2)C(=O)N(S(=O)(=O)c2ccc(OC)cc2OC)c2ccc(C#N)cc21 (stereo not drawn) . Reported pKi?
> 7.30

Item under review: COc1ccc(S(=O)(=O)N2C(=O)C(c3ccc(CN4CCN(C(C)=O)CC4)cc3OC)(N3CCC[C@H]3C(=O)N(C)C)c3cc(Cl)ccc32)c(OC)c1 (stereo partly drawn) . Reported pKi?
7.00 to 8.00

Item under review: CCOc1nc(Cl)ccc1C1(N2CCN(c3ccnc(C)c3)CC2)C(=O)N(S(=O)(=O)c2ccc(OC)c3cccnc23)c2ccc(C#N)cc21 (racemic) . Reported pKi?
> 8.00

Item under review: COc1ccc(S(=O)(=O)n2c(=O)n(C(C(=O)N3CCCC3C(=O)N(C)C)c3ccccc3)c3cc(Cl)ccc32)cc1 (stereo not drawn) . Reported pKi?
6.30 to 7.00

Item under review: COc1ccc(S(=O)(=O)N2C(=O)C(c3ccc(CN4CCOCC4)cc3OC)(N3CCC[C@H]3c3ncco3)c3cc(C#N)ccc32)cc1 (stereo partly drawn) . Reported pKi?
6.00 to 7.00

Item under review: CCOc1ccc(OC)cc1C1(N2CCCN(c3ccnc(C)c3)CC2)C(=O)N(S(=O)(=O)c2ccc(OC)cn2)c2ccc(C#N)cc21 (racemic) . Reported pKi?
> 8.00

Item under review: COc1ccc(S(=O)(=O)N2C(=O)C(c3cc(CN(C)C)ccc3F)(N3CCC[C@H]3c3ncco3)c3cc(Cl)ccc32)cc1 (stereo partly drawn) . Reported pKi?
7.00 to 8.00

Item under review: COc1ccc(S(=O)(=O)N2C(=O)C(c3ccc(CN4CCOCC4)cc3OC)(N3CCC[C@H]3c3ncco3)c3cc(Cl)ccc32)cc1 (stereo partly drawn) . Reported pKi?
7.00 to 8.00

Item under review: CNCc1ccc(OC)c(C2(N3C[C@H](O)C[C@H]3c3ncco3)C(=O)N(S(=O)(=O)c3ccc(OC)cc3)c3ccc(C#N)cc32)c1 (stereo partly drawn) . Reported pKi?
> 8.00

Item under review: COc1ccc(S(=O)(=O)n2c(=O)n(C(C(=O)N3CCC[C@H](N4CCNCC4)C3)c3ccccc3)c3cc(C#N)ccc32)cc1 (stereo partly drawn) . Reported pKi?
> 7.00

Item under review: CCOc1ccccc1C1(N2CCN(c3ccncc3)CC2)C(=O)N(S(=O)(=O)c2ccc(C)cn2)c2ccc(C#N)cc21 (single isomer, unassigned; (+)) . Reported pKi?
> 8.00

Item under review: CNCc1ccc(OC)c(C2(N3CCC[C@H]3c3ncco3)C(=O)N(S(=O)(=O)c3ccc(OC)cc3)c3ccc(Cl)cc32)c1 (stereo partly drawn) . Reported pKi?
> 8.00

Item under review: COc1ccc(S(=O)(=O)N2C(=O)C(c3cc(CN4CCCCC4)ccc3OC)(N3CCC[C@H]3c3ncco3)c3ccc(Cl)cc32)cc1 (stereo partly drawn) . Reported pKi?
6.00 to 7.00

Item under review: COc1ccc(S(=O)(=O)N2C(=O)C(c3cc(CNCCO)ccc3OC)(N3CCC[C@H]3c3ncco3)c3cc(C#N)ccc32)cc1 (stereo partly drawn) . Reported pKi?
7.00 to 8.00

Item under review: CCOc1ncccc1[C@]1(NC(=O)N2CC(N3CCC(N4CCC(OC)CC4)CC3)C2)C(=O)N(S(=O)(=O)c2ccc(OC)cc2OC)c2ccc(C#N)cc21 . Reported pKi?
8.00 to 9.00

Item under review: COc1ccc(S(=O)(=O)n2c(=O)n(C(C(=O)N3CCN(C4CCN(C)CC4)CC3)c3ccccc3)c3ccc(Cl)cc32)cc1 (stereo not drawn) . Reported pKi?
6.30 to 7.00

Item under review: COc1ccc(S(=O)(=O)n2c(=O)n(C(C(=O)N3CCN(c4ccncc4)CC3)c3ccccc3)c3cc(I)ccc32)cc1 (stereo not drawn) . Reported pKi?
> 7.00

Item under review: CCOc1ccc(OC)cc1C1(N2CCN(C3CCNCC3)CC2)C(=O)N(S(=O)(=O)c2ccc(OC)cn2)c2ccc(C#N)cc21 (racemic) . Reported pKi?
> 8.00

Item under review: COc1ncccc1C1(N2CCN(c3ccncc3)CC2)C(=O)N(S(=O)(=O)c2cccc3cccnc23)c2ccc(Cl)cc21 (racemic) . Reported pKi?
7.30 to 8.00

Item under review: COc1ccc(S(=O)(=O)n2c(=O)n(C(C(=O)N(C)CCCN(C)C)c3ccccc3)c3cc(Cl)ccc32)cc1 (stereo not drawn) . Reported pKi?
6.30 to 7.00

* * *

Reported Ki against Vasopressin V1b receptor (Homo sapiens, UniProt P47901), gathered from multiple publications, appears below.

Quick check: Ki on Vasopressin V1b receptor (Homo sapiens, UniProt P47901), item CCOc1ncccc1[C@]1(NC(=O)N2CC(N3CCC(N4CCOCC4)CC3)C2)C(=O)N(S(=O)(=O)c2ccc(OC)cc2OC)c2cc(F)c(C#N)cc21 ?
< 1 nM

Quick check: Ki on Vasopressin V1b receptor (Homo sapiens, UniProt P47901), item COc1ccc(S(=O)(=O)n2c(=O)n(C(C(=O)N3CCCC3c3ccccc3)c3ccccc3)c3cc(Cl)ccc32)cc1 (stereo not shown) ?
500 to 10000 nM

Quick check: Ki on Vasopressin V1b receptor (Homo sapiens, UniProt P47901), item COc1ccc(S(=O)(=O)n2c(=O)n(C(C(=O)N3CCCC(N)C3)c3ccccc3)c3cc(Cl)ccc32)cc1 (stereo not shown) ?
< 100 nM

Quick check: Ki on Vasopressin V1b receptor (Homo sapiens, UniProt P47901), item CCOc1ccc(CN(C)C)cc1C1(N2CCC[C@H]2c2ncco2)C(=O)N(S(=O)(=O)c2ccc(OC)cc2)c2ccc(Cl)cc21 (stereo partly shown) ?
10 to 100 nM

Quick check: Ki on Vasopressin V1b receptor (Homo sapiens, UniProt P47901), item CCOc1ncccc1[C@]1(NC(=O)N2CC(N3CCC(N4CCCC4)CC3)C2)C(=O)N(S(=O)(=O)c2ccc(OC)cc2OC)c2ccc(Cl)cc21 ?
< 1 nM

Quick check: Ki on Vasopressin V1b receptor (Homo sapiens, UniProt P47901), item CCOc1ccccc1C1(N2CCN(c3ccncc3)CC2)C(=O)N(S(=O)(=O)c2ccccc2)c2ccc(C#N)cc21 (stereo not shown) ?
50 to 500 nM

Quick check: Ki on Vasopressin V1b receptor (Homo sapiens, UniProt P47901), item COc1ccc(S(=O)(=O)n2c(=O)n(C(C(=O)N3CCCC(N)C3)c3ccccc3)c3cc(C#N)ccc32)cc1 (stereo not shown) ?
500 to 10000 nM
